# test_summary: Pharmacokinetics study, plasma and brain concentration by LC-MS/MS
# Format: in vivo
# study_conditions: male, mouse, sc; C57BL/6 mice; subcutaneous 3 mg/kg; brain; read-out: AUCINF in brain
observation_type: AUC(0-inf) (ng·h/mL)
Numbers only, in ng·h/mL.

Asked: Given the entry CC(=O)N1CCCN(c2nc(NCCc3cccs3)nc(N(C)CC(=O)NCCOCCOCCOCC(=O)N[C@H](C(=O)N3C[C@H](O)C[C@H]3C(=O)NCc3ccc(-c4scnc4C)cc3)C(C)(C)C)n2)CC1 , report its measured AUC(0-inf).
Given back: 12.6

----------
# test_summary: Pharmacokinetics study, plasma and brain concentration by LC-MS/MS
# Type: in vivo
# study_conditions: male, mouse, sc; C57BL/6 mice; subcutaneous 3 mg/kg; brain; read-out: Tmax in brain
observation_type: Tmax (min)
Answers are plain numbers, in min.

Asked: Given the entry CC(=O)N1CCCN(c2nc(NCCc3cccs3)nc(N(C)CC(=O)NCCOCCOCCOCC(=O)N[C@H](C(=O)N3C[C@H](O)C[C@H]3C(=O)NCc3ccc(-c4scnc4C)cc3)C(C)(C)C)n2)CC1 , report its measured Tmax.
Given back: 10
